EXPERIMENT_SUMMARY: doxorubicin toxicity protection in MRP-1 cells – H69AR cells, CellTiter-Glo, duplicate, MRP-1 activator project, pilot screen (AID 807);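 further: compound pretreatment 18-22 h then 72 h combined with doxorubicin; 0% = doxorubicin alone and 100% = vehicle without doxorubicin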
CONDITION: H69AR viability with doxorubicin, CellTiter-Glo luminescence; at 10 µM; stronger effect = higher value
Entries and their viability increase
Numeric answer only, unit % assumed.

Consider the following illustrative entries.
COMPOUND: Cc1ccc(S(=O)(=O)c2nc(-c3ccco3)oc2SCC(=O)NCC2CCCO2)cc1 (stereo unspecified)
VAL: -2.88

COMPOUND: COc1ccc(OCC(=O)N2CC3(C)CC2CC(C)(C)C3)cc1 (stereo unspecified)
VAL: 0.69

COMPOUND: CCOc1ccc(N(CC(=O)NC2CCCC2)S(=O)(=O)c2c(C)noc2C)cc1
VAL: -2.27

COMPOUND: Cc1cc(C)n(C(=O)CCN2C(=O)c3ccccc3C2=O)n1
VAL: 2

COMPOUND: CN(C)c1ccc(S(=O)(=O)c2ccc(Cl)cc2)cc1
VAL: -1.11

The record that follows has no viability increase shown yet.
Record summary for CCCc1nnc(NC(=O)NCCN2C(=O)C3C4C=CC(C4)C3C2=O)s1 (stereo unspecified) : reported viability increase = -0.68

---

EXPERIMENT_SUMMARY: MRP1 drug-resistance reversers in H69AR cells – cell-based, doxorubicin co-treatment, pilot screen (AID 601)
CONDITION: H69AR cells, CellTiter-Glo, 72 h; compound alone cytotoxicity; at 10 µM
ATTRIBUTE_MEASURED: viability (%)
Numeric answer only, unit % assumed.

Consider the following illustrative entries.
COMPOUND: FC(F)(F)c1cc(-c2ccco2)nc(NCc2ccco2)n1
VALUE_UNITS: %
VAL: 62.2
//
COMPOUND: CCC(C)OC(=O)C1=C(C)NC2=C(C(=O)C(C(=O)OC)C(C)C2)C1c1ccc(N(C)C)cc1 (stereo unspecified)
VALUE_UNITS: %
VAL: 95.8
//
COMPOUND: CCN(CC)CCN1C(=O)c2oc3ccc(F)cc3c(=O)c2C1c1ccncc1 (stereo unspecified)
VALUE_UNITS: %
VAL: 87.5
//
COMPOUND: CCCN(CCC)CCNC(=O)c1cc2c(=O)n(C)c3ccccc3c2n1C
VALUE_UNITS: %
VAL: 77.1
//
COMPOUND: CCOC(=O)C1CCN(Cc2ccc(OC)c(C)c2OC)CC1
VALUE_UNITS: %
VAL: 86.9
//
COMPOUND: CCOCC(=O)Nc1nc2c(s1)C(=O)CC(C)(C)C2
VALUE_UNITS: %
VAL: 83.7

Record summary for O=C(Cn1nc(Cc2ccncc2)c2ccccc2c1=O)N1CCc2ccccc2C1 : reported viability = 96.5

Record summary for Cc1cc(C)c(C#N)c(SCC(=O)Nc2ccc(S(=O)(=O)Nc3onc(C)c3C)cc2)n1 : reported viability = 87.4

Record summary for Cc1ccc(S(=O)(=O)Cc2ccc(C(=O)N3CCN(Cc4ccccc4)CC3)o2)cc1 : reported viability = 85.8

Record summary for O=C(c1cc2ccccc2oc1=O)N1CCN(c2ccc(N3CCOCC3)nn2)CC1 : reported viability = 101

Record summary for COc1cccc(NC(=O)c2nnn(Cc3ccc(Br)cc3F)c2N)c1 : reported viability = 72

Record summary for CCCCOCCCNC(=O)c1ccc(NC(C)=O)cc1 : reported viability = 96.6

Record summary for CCOC(=O)Cc1nnc(NC(=O)c2ccccc2OCC)s1 : reported viability = 98

Record summary for COc1ccc(CCn2c(-c3ccco3)nc3ccccc3c2=O)cc1OC : reported viability = 52.8

Record summary for COc1ccc(CNC(=O)c2ccc(CN3CCOCC3)cc2)cc1 : reported viability = 92.1

---

EXPERIMENT_SUMMARY: S. cerevisiae growth inhibition in permissive medium (OD615), pilot counter-assay for S. cerevisiae lifespan shortening project, permissive growth control (AID 705)
CONDITION: OD615, 24 h, at 10 µM, stronger effect = higher value
ATTRIBUTE_MEASURED: growth inhibition (%)
Numeric answer only, unit % assumed.

MOLECULE: O=C1C/C(=C/NCc2ccccc2)C(=O)N1
VALUE_UNITS: %
VAL: -6.49
//
MOLECULE: CCN1CCN(c2cc(=O)n(C3CCCCC3)c(=O)[nH]2)CC1
VALUE_UNITS: %
VAL: -13.3
//
MOLECULE: CN(C)c1ccc(CN2CCCCCC2)cc1
VALUE_UNITS: %
VAL: -3.95
//
MOLECULE: CC1CCc2nn(CC(=O)NCc3ccc(F)cc3)cc2C1 (stereo unspecified)
VALUE_UNITS: %
VAL: -3.91
//
MOLECULE: CCOc1ccccc1NC(=O)C1CCCN(S(=O)(=O)c2cccc3cccnc23)C1 (stereo unspecified)
VALUE_UNITS: %
VAL: -4.4
//
MOLECULE: Nn1c(Cc2ccccc2F)nnc1SCC(=O)N1CC(=O)Nc2ccccc21
VALUE_UNITS: %
VAL: -11.9
//
MOLECULE: CNS(=O)(=O)c1ccc(Oc2ccc(S(=O)(=O)NC)cc2)cc1
VALUE_UNITS: %
VAL: 2.02
//
MOLECULE: COCCNC(=O)c1cc(-c2cccs2)on1
VALUE_UNITS: %
VAL: -0.235
//
MOLECULE: NC(=O)C1(N2CCCCC2)CCN(C(=O)CCCn2c(=O)[nH]c3ccsc3c2=O)CC1
VALUE_UNITS: %
VAL: -6.16
//
MOLECULE: Cn1cccc1Cc1nnc(SCC(=O)NCC2CCCO2)n1-c1ccc(F)cc1 (stereo unspecified)
VALUE_UNITS: %
VAL: -11.2

Record summary for CCOC(=O)N1CCN(C(=O)c2c(-c3ccccc3)noc2C)CC1 : reported growth inhibition = -9.5

---

EXPERIMENT_SUMMARY: MRP1 drug-resistance reversers in H69AR cells – cell-based, doxorubicin co-treatment, pilot screen (AID 601)
CONDITION: H69AR cells, CellTiter-Glo, 72 h; compound alone cytotoxicity; at 10 µM
ATTRIBUTE_MEASURED: viability (%)
Numeric answer only, unit % assumed.

Consider the following illustrative entries.
COMPOUND: Cc1noc(/C=C/N(C)C)c1S(=O)(=O)N1CCCC(C(=O)N2CCc3ccccc32)C1 (stereo unspecified)
ATTRIBUTE_MEASURED: viability
VAL: 89.2
--
COMPOUND: O=S(=O)(c1ccc(F)cc1)N1CCC(N2CCCC2)CC1
ATTRIBUTE_MEASURED: viability
VAL: 91.2
--
COMPOUND: O=C(NCc1ccco1)C1CCN(c2ccc(N3CCOCC3)nn2)CC1
ATTRIBUTE_MEASURED: viability
VAL: 83.6

Record summary for Cc1nn(C(=O)c2ccc3c(c2)OCO3)c(N)c1-c1ccccc1 : reported viability = 94.2

Record summary for CCn1c(SCC(=O)Nc2cc(C)ccc2C)nc2c(c1=O)SC(C)C2 (stereo unspecified) : reported viability = 83.1

---

EXPERIMENT_SUMMARY: RAM signaling pathway blockade in yeast – S. cerevisiae, Pdr1DBD-CYC8 efflux-inhibited sensitized strain, primary screen (AID 1298);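 further: 0% = DMSO untreated cells without growth and 100% = 10 µM 1-NA-PP1 full growth; higher means more yeast growth rescued from 5-FOA killing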
CONDITION: S. cerevisiae cbk1-as DSE1-URA3 strain, 5-FOA growth OD615, 2 d; at 50 µM; stronger effect = higher value
ATTRIBUTE_MEASURED: RAM network inhibition (%)
Numeric answer only, unit % assumed.

Consider the following illustrative entries.
COMPOUND: Cc1cc(C)nc(SCC(=O)OCN2C(=O)c3ccccc3C2=O)n1
VALUE_UNITS: %
VAL: 3.15
//
COMPOUND: CCCCCOc1ccc(C2NC(=O)NC2=O)cc1 (stereo unspecified)
VALUE_UNITS: %
VAL: 1.57
//
COMPOUND: O=C(Cn1c(=O)oc2cc(S(=O)(=O)N3CCCC3)ccc21)NC1CCCc2ccccc21 (stereo unspecified)
VALUE_UNITS: %
VAL: 10.3
//
COMPOUND: CCN(C1CCCCC1)S(=O)(=O)c1ccc(S(=O)(=O)N2CCN(CCC#N)CC2)cc1
VALUE_UNITS: %
VAL: -1.33
//
COMPOUND: CCc1cc2c(NCCC(=O)O)ncnc2s1
VALUE_UNITS: %
VAL: 2.49
//
COMPOUND: O=C(CCCCC(=O)N1CCN(c2ccccc2)CC1)N1CCN(c2ccccc2)CC1
VALUE_UNITS: %
VAL: -0.46
//
COMPOUND: COc1ccc(C(=O)c2ccc(OC)c(N)c2)cc1N
VALUE_UNITS: %
VAL: 2.22
//
COMPOUND: O=C(O)c1cnn2c1NC(c1cccs1)CC2C(F)(F)F (stereo unspecified)
VALUE_UNITS: %
VAL: 4.4

Record summary for N#Cc1nc(-c2ccc(F)cc2)oc1NCCN1CCOCC1 : reported RAM network inhibition = 7.83

Record summary for CCOC(=O)CN1CC23C=CC(O2)C(C(=O)Nc2ccc(OCC)cc2)C3C1=O (stereo unspecified) : reported RAM network inhibition = 0.21

Record summary for Cn1c(NC(=O)C2CCCC2)cc(=O)n(C)c1=O : reported RAM network inhibition = -1.4
